Target: T1, TNFR1 (Homo sapiens, UniProt P19438)
T1 chain: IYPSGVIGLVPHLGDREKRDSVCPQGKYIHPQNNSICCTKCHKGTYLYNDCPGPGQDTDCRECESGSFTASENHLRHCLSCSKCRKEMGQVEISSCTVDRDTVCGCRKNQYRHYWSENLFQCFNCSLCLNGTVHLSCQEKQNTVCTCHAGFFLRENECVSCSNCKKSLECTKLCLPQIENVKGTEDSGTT
Experiment: yeast display SC50
ATTRIBUTE MEASURED: apparent Kd (screen) (nM)

BINDER	VALUE
Q34E (designed binder) MTLQELLREEALRRAEAEAFRYALELLAEKFPEEKEYLLDLAEEIESQIRSLSGVDVEDVRKFLDKEWAWVKELLAEHPAELAEVEAARAARLAELRAEVEAKVAA	0.653
E16H (designed binder) MTLQELLREEALRRAHAEAFRYALELLAEKFPEQKEYLLDLAEEIESQIRSLSGVDVEDVRKFLDKEWAWVKELLAEHPAELAEVEAARAARLAELRAEVEAKVAA	0.718
